Hi there, I'd appreciate the recorded cytotoxicity at 70.5 h for every entry that follows.
- ASSAY_METHOD_TEXT: Human HepG2 cell viability assay in 384 well format
- Assay type: toxicity, cell-based
- Parameters: dose 125 nL, time 70.5 hour; concentration not given beside the values
- DETAILS: HepG2 cells, read-out: Inhibition
Numbers only, in %.

// solved cases for cytotoxicity at 70.5 h follow
CCSCCC(=O)N1CCc2[nH]nc(COc3ccccc3)c2C1: 23.8
CCn1nc(C(C)C)cc1C(=O)NCC1CCCN(c2ccccn2)C1 (stereo unspecified): -6.28
CCn1cnnc1CNC(=O)N1CCOC(c2ccc(F)cc2)C1 (stereo unspecified): -3.32
O=C(Nc1ccc(CN2CCOCC2)cc1)c1nccn2ccnc12: 22.2
CCc1nccn1-c1cncc(C2CCN(C(=O)COC)CC2)n1: -6.24

Field: next compound
cytotoxicity at 70.5 h measured on `CCc1cc(NC2CCN(Cc3ccccc3F)CC2)n2nccc2n1` = -16.6

* * *

- ASSAY_METHOD_TEXT: Human HepG2 cell viability assay in 384 well format
- Assay type: toxicity, cell-based
- Design: dose 125 nL, time 70.5 hour; concentration not given beside the values
- DETAILS: HepG2 cells, read-out: Inhibition
MEASURED_ENDPOINT: cytotoxicity at 70.5 h (%)
Answers are plain numbers, in %.

CSCc1noc(CNC(=O)C2CCN(C(C)C)CC2)n1: -12

Please supply cytotoxicity at 70.5 h for each of the following items, keeping them in order.
1. CCN(Cc1nc2c(cnn2C)c(=O)[nH]1)c1cc(C)cc(C)c1
2. Fc1cnc(N2CCCn3c(nnc3Cn3cccc3)C2)nc1
3. Cc1noc(C)c1CN1CCN(C(=O)Cn2cncn2)CC1

Given back:
1: 9.75; 2: 27.5; 3: -5.67

For every record below, what is its cytotoxicity at 70.5 h?
1. N#Cc1c(Cl)nsc1NCCCN1C(=O)COc2ccccc21
2. COCCNC(=O)[C@]12COC[C@H]1CN(c1cc(OC)ncn1)C2
3. CC1c2ncc(CN3CCN(C)CC3)n2CCN1Cc1cccnc1 (centres undefined)
4. COc1ccc(CN(C)Cc2ccnc(C3CCCO3)n2)cc1 (centres undefined)
5. CCOC[C@H]1CC[C@H]2[C@H](CCN2C(=O)c2cnccn2)O1
6. Cc1cccc(N(C)Cc2nc3c(cnn3C)c(=O)[nH]2)c1C
7. Cc1cc(C(F)(F)F)nc(N2CCN(Cc3nccn3C)CC2)n1
8. Cc1nccn1CC1CCN(C(=O)Cc2ccccc2)CC1

Given back:
1. 8.75
2. -1.98
3. -15.8
4. -2.06
5. -4.15
6. -10
7. 4.75
8. 24.1

* * *

- ASSAY_METHOD_TEXT: Human HepG2 cell viability assay in 384 well format
- Type: toxicity, cell-based
- Design: dose 125 nL, time 70.5 hour; concentration not given beside the values
- DETAILS: HepG2 cells, read-out: Inhibition
MEASURED_ENDPOINT: cytotoxicity at 70.5 h
Write the numeric value and append its unit.

Please give cytotoxicity at 70.5 h for each item listed below.
1. O=C(Nc1ccc(F)cc1)N1CCN(Cc2noc(C3CC3)n2)CC1
2. Cc1ncsc1CN1CC[C@H]2OCC[C@@]2(C(=O)N(C)C)C1
3. CCC1c2ccsc2CCN1C(=O)NCc1ccc(C)nc1 (stereo unspecified)
4. O=C(NC[C@H]1OC[C@@H](NCc2ccccc2)[C@@H]1O)Nc1ccccc1
5. CCC(C)(CC(=O)OC)NC(=O)c1ccc(C(C)=O)cc1 (stereo unspecified)
6. CC(C)c1nccn1C1CCCN(C(=O)c2ccsc2)C1 (stereo unspecified)

Given back:
["1.53%", "-3.45%", "-10.2%", "-3.94%", "23.7%", "-2.65%"]

* * *

- ASSAY_METHOD_TEXT: Human HepG2 cell viability assay in 384 well format
- Format: toxicity, cell-based
- Design: dose 125 nL, time 70.5 hour; concentration not given beside the values
- DETAILS: HepG2 cells, read-out: Inhibition
Field: cytotoxicity at 70.5 h. Provide a value for each of the molecules that follow.
The answer consists of two parts: a number and, after it, its unit.

# batch size: 6; output cytotoxicity at 70.5 h per entry
1. CCc1nccn1C1CCCN(C(=O)c2cc[nH]n2)C1 (stereo unspecified)
2. Cc1c[nH]nc1C1CCCN(C(=O)c2c(C)noc2C)C1 (stereo unspecified)
3. CN1CCN(C2CCN(Cc3noc(C(C)(C)C)n3)CC2)C1=O
4. Cc1occc1C(=O)NCC(=O)NCCCOc1ccc(F)cc1
5. CN(C)CCO[C@@H]1CC[C@H]2[C@H]1OCCN2C(=O)COc1ccccc1
6. O=C(NCCN1CCCCCC1=O)c1n[nH]c(=O)c2ccccc12

Given back:
1. -1.71%
2. -1.16%
3. 9.12%
4. -17.7%
5. -16.3%
6. -20.8%

* * *

So I've got a bunch of molecules here, and I need their cytotoxicity at 70.5 h values.
- ASSAY_METHOD_TEXT: Human HepG2 cell viability assay in 384 well format
- Assay type: toxicity, cell-based
- Design: dose 125 nL, time 70.5 hour; concentration not given beside the values
- DETAILS: HepG2 cells, read-out: Inhibition
Answers are plain numbers, in %.

Below, each entry is followed by its recorded cytotoxicity at 70.5 h result.
c1ccc(CN2CCCC(Cn3cncn3)C2)nc1 (stereo unspecified): 20.8
CCOCCCn1c(NC(=O)c2cc(C)on2)nc2ccccc21: 9.94
O=C(c1ccoc1)N1CCOC2(COCCN(CC3CC3)C2)C1 (stereo unspecified): -1.92
Fc1ccc(CN2CCCC2Cn2cncn2)c2ncccc12 (stereo unspecified): 2.94
CC(CNc1nccc(C(C)C)n1)Oc1cccnc1 (stereo unspecified): -6.89

Lab note: next molecule to report on.
So, `CCCSCC(=O)N1C[C@@H](NC(C)=O)[C@H](c2ccc(OC)cc2)C1` ? Its cytotoxicity at 70.5 h was -19.4

* * *

- ASSAY_METHOD_TEXT: Human HepG2 cell viability assay in 384 well format
- Assay type: toxicity, cell-based
- Set-up: dose 125 nL, time 70.5 hour; concentration not given beside the values
- DETAILS: HepG2 cells, read-out: Inhibition
MEASURED_ENDPOINT: cytotoxicity at 70.5 h (%)
Answers are plain numbers, in %.

Some solved entries appear below for comparison.
CCn1ccnc1CN1CCCn2nc(CNC(=O)C3CCC3)cc2C1: -7.76
COC(=O)c1ccc(OC)c(OC23CCCN(CC2)C3)c1 (stereo unspecified): -8.44
COc1cc(C(=O)Nc2nc(C)no2)cc(OC)c1Br: 27.4
COc1c(C(=O)NC(C)Cc2ccccc2Cl)c(C)nn1C (stereo unspecified): 3.5
O=C(Nc1cc(CSCCO)ccn1)c1ccc(Cl)o1: -10.5

Here is the next item to consider.
Entry CCN1CCOC(CNCc2ccccc2OCC(=O)N(C)C)C1 (stereo unspecified) — recorded cytotoxicity at 70.5 h = -4.93

* * *

So I've got a bunch of compounds here, and I need their cytotoxicity at 70.5 h values.
- ASSAY_METHOD_TEXT: Human HepG2 cell viability assay in 384 well format
- Assay type: toxicity, cell-based
- Parameters: dose 125 nL, time 70.5 hour; concentration not given beside the values
- DETAILS: HepG2 cells, read-out: Inhibition
Numbers only, in %.

For orientation, consider the following solved cases.
Cc1nn(C)c2cn(C(C)C(=O)NCc3cccnc3)nc12 (stereo unspecified): -1.5
CN(C)c1ccc(CNCc2cnc(N3CCOCC3)nc2)cn1: 2.93
Cc1noc(-c2ccnc(Oc3ccc(CN4CCCC4)cc3C)c2)n1: -4.76
CC(=O)N1CCCN(C(=O)NCCCNS(C)(=O)=O)CC1: 9.32
CN(C)c1nc(N)nc(CSCCC(=O)Nc2cccc(Cl)c2)n1: 19.2

Next up:
Data point: `Cn1cnc2cc(C(=O)NS(=O)(=O)c3ccccc3Cl)ccc21` ; cytotoxicity at 70.5 h = -2.15

* * *

- ASSAY_METHOD_TEXT: Human HepG2 cell viability assay in 384 well format
- Type: toxicity, cell-based
- Set-up: dose 125 nL, time 70.5 hour; concentration not given beside the values
- DETAILS: HepG2 cells, read-out: Inhibition
MEASURED_ENDPOINT: cytotoxicity at 70.5 h (%)
Answers are plain numbers, in %.

These recorded examples may help you get a feel for the data.
COc1ccc(C(O)CNC(=O)NCCc2csc(C)n2)cc1 (stereo not given): -4.45
Cc1cc(CN(C)C(=O)NC2CCCC2)no1: -7.06
C[C@]1(O)CCN(Cc2ncccc2F)C[C@@H]1Oc1ccccc1: -6.62
Cn1cc(NC(=O)c2cc3c(s2)CCCC3)cn1: -0.0582
CCCn1ncc(C(=O)NC(C)c2c(C)nn(CC)c2C)c1C (stereo not given): -8.47
Cc1ccc(CNC(=O)N2CCN(S(C)(=O)=O)CC2)n1C: -6.21
Cc1ncc(CN(C)C(=O)c2ccc3c(c2O)OC(C)(C)C3)s1: -1.48
CC(Cn1cccn1)NCc1nc(-c2ccsc2)no1 (stereo not given): 5.46
c1cc(CN2CCO[C@H]3[C@H](OCCN4CCCC4)CC[C@@H]32)co1: -14.8
Cc1ccc(C(=O)NCCNCC2CNc3ccnn3C2)cc1F (stereo not given): 1.33

Your task in this section: give cytotoxicity at 70.5 h for each listed record.
1. COCCN(C)C[C@H]1C[C@@H](CO)CN(C(=O)c2ccn(C)c(=O)c2)C1
2. Cc1nc(N2CCCC2)nc2c1CCN(C(=O)N(C)C)CC2
3. CCC1c2cccn2CCN1C(=O)c1ccc2nonc2c1 (stereo not given)
4. O=C(CCOc1cccc(F)c1)N1CCCC(n2cncn2)C1 (stereo not given)

Given back:
[-8.04, -16.7, -2.25, -6.87]

Count: 5. Required value per item: cytotoxicity at 70.5 h.
1. Cc1cccc(CN2CCCCC23CCNC3)n1 (stereo not given)
2. Cc1cc(C)n(CC(=O)NC2CCCCNC2=O)n1 (stereo not given)
3. COCCN1CCO[C@H]2CN(Cc3cccc(C)n3)C[C@H]21
4. CO[C@H]1COC[C@@H]1NC(=O)C1(Oc2ccc(Cl)cc2)CCNCC1
5. CCOc1cc(C(=O)N2CCCC2)cc2occc12

Given back:
-8.16
-6.78
-5.32
-6.36
-8.39

Hi, could you look up cytotoxicity at 70.5 h for each item in my list?
1. CC(Nc1nc(-c2ccncc2)nc2c1CCNC2)c1ccccc1 (stereo not given)
2. CCC(C)(NCC(=O)N(c1ccccc1)C(C)C)c1nc(C)cs1 (stereo not given)
3. CC(c1ccccc1F)N1CCN(C(=O)Cc2ccncc2)CC1 (stereo not given)
4. CCS(=O)(=O)N1CCC2(CN(C(=O)c3cn(C)cn3)C2)C1
5. CCC(C#N)NC(=O)c1sccc1OC (stereo not given)
6. O=C(CCc1cccc(C2CCNCC2)n1)N1CCCCC1

Given back:
1: -9.03; 2: 2.38; 3: -11.8; 4: 8.36; 5: -10.7; 6: -12.2

Source of measurements: ChEMBL document CHEMBL3507680
